system: SW-620; test: NCI tumour cell line growth inhibition, 48 h
Calls of active or inactive are those of the source. Cut-off read from the data, not from the text of the source: active = GI50 up to about 1.1 µM and inactive = higher.
MEASURE: GI50

Worked set:
Cc1ccccc1N/N=C1\C(=O)Nc2ccccc21: > 100 µM (inactive)
Cc1cccc(NC(=O)c2cc3cc(/N=N/c4ccccc4Cl)ccc3oc2=O)c1: 54.1 µM (inactive)
O=C1Sc2ccccc2/C1=N/Nc1ccccc1[N+](=O)[O-]: > 100 µM (inactive)

Fill in the recorded GI50 for this compound, with SW-620 as test system: CCN(CC)/[N+]([O-])=N/OC
> 100 µM (inactive)

====

tested on: BT-549; test: NCI tumour cell line growth inhibition, 48 h
Active and inactive are the calls of the source. No stated cut-off is given here; in the data, active = GI50 up to about 1.1 µM and inactive = higher.
Reply using exactly one outcome from class 1 (active), class 0 (inactive)

Answered cases to consult:
O=C(O)C1(C(=O)O)CCN(S(=O)(=O)c2ccccc2)CC1: class 0
O=C1NC2(CCCCC2)N=C2C(Cl)CCCC12Cl (stereo unspecified): class 0
CCNC1=C(NC(=O)CC)C(=O)c2ccccc2C1=O: class 0
Cc1ccc(NC(=O)C(=O)C2C(=O)C3=C(CC2(C)C)NC2C=CC=CC2S3)c(C)c1 (stereo unspecified): class 0
COc1cc(/C=N/N=C2NCCCCN2)ccc1O: class 0
CCOC(=O)C(C)c1nc2cc(C(F)(F)F)ccc2[nH]c1=O (stereo unspecified): class 0

Hey, what did the test say about CC(=O)OC1(C)CC(C)C(=O)C(C(O)CC2CC(=O)NC(=O)C2)C1 (stereo unspecified) ?
class 1

Note, next up: CN(C)CCCN1c2ccc(O)cc2Sc2ccc(Cl)cc21 [7-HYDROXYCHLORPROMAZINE]
class 0

Note, next up: COC(=O)C1=C(O)C(C(=O)OC)[C@]2(O)[C@@H](C(=O)OC)[C@H]1[C@H](C)[C@@H](c1ccccc1)[C@@H]2C(=O)OC (stereo partly specified)
class 0

Note, next up: CC1(C)CCCCCCCCCC(C)(CCCCCCCCCCCCO)C1=O (stereo unspecified)
class 0

Note, next up: CCCCN1CCC(O)(c2cc(C(=O)O)[nH]c2-c2cc(C)no2)C1=O (stereo unspecified)
class 0

Note, next up: CC(C)(C)OC(=O)c1ccc(NCC2=CC(=O)C=CC2=O)cc1
class 0

Note, next up: c1ccc(COc2nc3cc(C45CC6CC(CC(C6)C4)C5)ccc3[nH]2)cc1
class 0

Note, next up: O=C1N/C(=N/N=C/c2c[nH]c3ccccc23)N/C1=C\c1cccs1
class 0

====

tested on: OVCAR-3; assay: NCI tumour cell line growth inhibition, 48 h
The source made the active and inactive calls. Cut-off read from the data, not from the text of the source: active = GI50 up to about 1.1 µM and inactive = higher.
Reply using exactly one outcome from YES for active, NO for inactive

COC1=C2CC(C)CC(OC)C(O)C(C)/C=C(\C)C(OC(N)=O)C(OC)/C=C\C=C(/C)C(=O)NC(=C(/C=N/C(C)(C)C)C1=O)C2=O (centres undefined): YES
CN(CCCNc1ccc2ncn3c4ccccc4c(=O)c1c23)CCCN1C(=O)c2cccc3cc([N+](=O)[O-])cc(c23)C1=O: YES
CCOP(=O)(OCC)C1C(=O)O[C@H]2CCCC[C@@H]12 (some centres undefined): NO

Query compound follows.
Hey, what did the test say about CC(C)(C)C1CCC2c3c([nH]c4ccccc34)C3C(=O)N(c4cccc([N+](=O)[O-])c4)C(=O)C3C2C1 (centres undefined) ?
NO
